Experiment: Binding affinity at RNAs 3'-Fl-18-Rh-AM1A T box antiterminator model RNA by FRET assay
Design: species or system Bacillus subtilis
Endpoint Name: Kd (µM)

[[record]]
query_smiles = "O=C(Cc1ccccc1)OC[C@H]1OC(=O)N[C@@H]1CN1CCOCC1"
endpoint_value = 42

[[record]]
query_smiles = "CC(=O)c1ccc(NC(=O)OC[C@H]2OC(=O)N[C@@H]2CN2CCN(c3ccccc3)CC2)cc1"
endpoint_value = 0.9

[[record]]
query_smiles = "CN(C[C@H]1NC(=O)O[C@@H]1COC(=O)Cc1ccccc1)c1ccccc1"
endpoint_value = 61

[[record]]
query_smiles = "CCCCCCCC(=O)OC[C@H]1OC(=O)N[C@@H]1CN(C)c1ccccc1"
endpoint_value = 6.6

[[record]]
query_smiles = "O=C(Cc1ccccc1)OC[C@H]1OC(=O)N[C@@H]1CN1CCN(c2ccccc2)CC1"
endpoint_value = 13

[[record]]
query_smiles = "O=C(Cc1ccccc1)OC[C@H]1OC(=O)N[C@@H]1Cc1ccccc1"
endpoint_value = 9

[[record]]
query_smiles = "CN(CCc1ccccc1)C[C@H]1NC(=O)O[C@@H]1COC(=O)Cc1ccccc1"
endpoint_value = 114


----------
Assay: Binding affinity at AM1A T box antiterminator model RNA in presence of cognate tRNA
Set-up: species or system Bacillus subtilis
pKd: −log10 of the molar value.
Endpoint Name: pKd

[[record]]
query_smiles = "O=C(Cc1ccccc1)OC[C@H]1OC(=O)N[C@@H]1CN1CCN(c2ccccc2)CC1"
endpoint_value = 4.19

